- test_method_notes: amyloid nucleation score (Sup35N fusion, yeast selection) (log enrichment); library NNK2; higher = more nucleation; inactive = no reads after selection;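 note: zero at mode of non-aggregating sequences after 7 days selection at 30°C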
measured_metric: amyloid nucleation score
Form field (numeric): enter value without unit.

GET /values?readout=amyloid nucleation score&item= DPNLGLSTW
0.47

GET /values?readout=amyloid nucleation score&item= KLFSYPIWWSRYCRMGRHRC
0.374

GET /values?readout=amyloid nucleation score&item= TRQLIYHWDKFSPHPAQFLT
0.652

GET /values?readout=amyloid nucleation score&item= GENSVLRSGNFKYKAWFCGG
-0.342

GET /values?readout=amyloid nucleation score&item= WNTISRLCDLWLRVAYGSLV
0.461

GET /values?readout=amyloid nucleation score&item= SNKHCWWLDCKHLRIMPRCD
-0.363

GET /values?readout=amyloid nucleation score&item= MCCGISMVFGDCSQVSVLIR
8.85

GET /values?readout=amyloid nucleation score&item= TWQIFFGIFGFSFY
4.18

GET /values?readout=amyloid nucleation score&item= KFSASKSDISLSSYVVIMFM
6.19

GET /values?readout=amyloid nucleation score&item= ITLRRLTVITENPLGWNHIT
0.499

GET /values?readout=amyloid nucleation score&item= VGRVHSLSDYCDFGKSWFKY
-0.864

GET /values?readout=amyloid nucleation score&item= RTVTNEGTCFNGWLCYAREG
10.2

GET /values?readout=amyloid nucleation score&item= GRAPLSNNLMDSVTVESVHM
-0.744

GET /values?readout=amyloid nucleation score&item= SFRMKAALRRGNPNRAMDLT
2.33

GET /values?readout=amyloid nucleation score&item= CLCGPRIGLSVFNYVYFGMG
4.2

GET /values?readout=amyloid nucleation score&item= IGIIYFIARFAVVPRSGIRQ
-0.114

GET /values?readout=amyloid nucleation score&item= CNLSFVGS
0.287

GET /values?readout=amyloid nucleation score&item= TPIVGMLY
-0.477

GET /values?readout=amyloid nucleation score&item= VYIYSGFVVSWLRFFGVMRP
-0.394

GET /values?readout=amyloid nucleation score&item= TLHKLFQMNLGRR
-0.738

GET /values?readout=amyloid nucleation score&item= ITNAYGLIPTNFLCYAFCVI
7.96

GET /values?readout=amyloid nucleation score&item= ITSSRDDVSYTVGPKDMFES
1.17

GET /values?readout=amyloid nucleation score&item= SSMVQR
-0.917

GET /values?readout=amyloid nucleation score&item= LCSVQLRLMVAHNSRHLACM
1.5

GET /values?readout=amyloid nucleation score&item= LTLIVNPLVNSPPGPQASLT
0.735

GET /values?readout=amyloid nucleation score&item= ILGSFEHSTQGKYSYWGMRG
4.51

GET /values?readout=amyloid nucleation score&item= RMSIICFALKYILYRWMFRL
0.988

GET /values?readout=amyloid nucleation score&item= WSSHFWMFGSAVSQAWGRGW
3.17

GET /values?readout=amyloid nucleation score&item= DWSVKCGVMERI
-0.295

GET /values?readout=amyloid nucleation score&item= DSDNIPNHTYMILFGIQFHS
-0.311

GET /values?readout=amyloid nucleation score&item= VLCTYRGLDITL
0.166

GET /values?readout=amyloid nucleation score&item= GIFIFNAFEEMSVGKDSELL
-0.529

GET /values?readout=amyloid nucleation score&item= KLQRTGLYCYLY
-0.912

GET /values?readout=amyloid nucleation score&item= VLVDTSDRWLMARWLGVPKP
4.79

GET /values?readout=amyloid nucleation score&item= AEKQVCLAQKFLNLQLIFRW
1.72

GET /values?readout=amyloid nucleation score&item= FFGVSWRWARNFCYDMGQVY
-0.177

GET /values?readout=amyloid nucleation score&item= EWDVLGLRGRANN
1.36

GET /values?readout=amyloid nucleation score&item= PFCPFSEAVWMSTITLQHEG
-0.054
